Conditions: human;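 also: human cytolytic liver injury, shown by histopathology or by a ratio above 5 of peak ALT or AST elevation to alkaline phosphatase elevation, value counts indexed references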
value_type: Hepatotoxicity (cytolytic)
Kindly provide the number alone.

- molecule: "CN(CCCN1c2ccccc2CCc2ccccc21)CC(=O)c1ccc(Cl)cc1"
  Hepatotoxicity (cytolytic): 2

Note Hepatotoxicity (cytolytic) for the molecule shown: O=C1OCCN1/N=C/c1ccc([N+](=O)[O-])o1
1

Note Hepatotoxicity (cytolytic) for the molecule shown: CCCCc1nc(Cl)c(CO)n1Cc1ccc(-c2ccccc2-c2nn[nH]n2)cc1
4

Note Hepatotoxicity (cytolytic) for the molecule shown: CN1CCN(CCCN2c3ccccc3Sc3ccc(Cl)cc32)CC1
3

Note Hepatotoxicity (cytolytic) for the molecule shown: COc1cccc2c1C(=O)c1c(O)c3c(c(O)c1C2=O)C[C@@](O)(C(=O)CO)C[C@@H]3O[C@H]1C[C@H](N)[C@@H](O)[C@H](C)O1 [EPIRUBICIN]
0

Note Hepatotoxicity (cytolytic) for the molecule shown: CC(=O)Nc1ccc(OC(=O)c2ccccc2OC(C)=O)cc1 [BENORILATE]
2

Note Hepatotoxicity (cytolytic) for the molecule shown: CC(=O)N[C@H]1[C@H]([C@H](O)[C@H](O)CO)OC(C(=O)O)=C[C@@H]1N=C(N)N
0

Note Hepatotoxicity (cytolytic) for the molecule shown: COc1cc(N)c(Cl)cc1C(=O)NC1CCN(CCCOc2ccc(F)cc2)CC1OC (configuration not stated) [CISAPRIDE]
1

All figures here come from ChEMBL document CHEMBL3137667.
